target_system: human constitutive proteasome β5c (Homo sapiens, UniProt P28074)
metric: IC50 (µM)
Give your result in µM as a bare value.

Kindly note the recorded IC50 for "Cc1cc(C(=O)N[C@@H](CC(=O)NC(C)(C)C)C(=O)N[C@@H](C)CC(=O)NCc2cccc3ccccc23)no1" , which is 16.1

The recorded IC50 for "C[C@@H](CC(=O)NCc1cccc2ccccc12)NC(=O)[C@H](CCC(=O)NC(C)(C)C)NC(=O)CCc1ccccc1" is 17.8

# compound "C[C@@H](CC(=O)NCc1cccc2ccccc12)NC(=O)[C@H](CC(=O)NC(C)(C)C)NS(=O)(=O)c1ccccc1" ; its IC50 = 16.6

// recorded IC50 for "Cc1ccc(S(=O)(=O)N[C@@H](CC(=O)NC(C)(C)C)C(=O)N[C@@H](C)CC(=O)NCc2cccc3ccccc23)cc1" : 8.81
